Attribution: ChEMBL document CHEMBL4371027

assay text: Neurotoxicity in F-1 albino mouse at 30 mg/kg, ip after 2 hrs by rotarod test
Type: toxicity, organism-based
condition set: in vivo
quantity name: Activity

O=C1C=C(NCc2cc(F)ccc2F)CC(C(F)(F)F)C1 (stereo not drawn)    Non-Toxic
O=C1C=C(Nc2ccc(Cl)cc2)CC(C(F)(F)F)C1 (stereo not drawn)    Non-Toxic
O=C1C=C(Nc2ccc(Br)cc2C(=O)O)CC(C(F)(F)F)C1 (stereo not drawn)    Non-Toxic

====

assay text: Neurotoxicity in F-1 albino mouse at 100 mg/kg, ip after 2 hrs by rotarod test
Format: toxicity, organism-based
condition set: in vivo
quantity name: Activity

O=C1C=C(NCc2ccc(F)c(C(F)(F)F)c2)CC(C(F)(F)F)C1 (stereo not drawn)    Non-Toxic
COc1ccc(CNC2=CC(=O)CC(C(F)(F)F)C2)cc1 (stereo not drawn)    Non-Toxic
O=C1C=C(NCc2cccc(C(F)(F)F)c2)CC(C(F)(F)F)C1 (stereo not drawn)    Non-Toxic
O=C1C=C(NCc2cccc(OC(F)(F)F)c2)CC(C(F)(F)F)C1 (stereo not drawn)    Non-Toxic
O=C1C=C(NCc2cc(C(F)(F)F)cc(C(F)(F)F)c2)CC(C(F)(F)F)C1 (stereo not drawn)    Non-Toxic

Sample O=C1C=C(NCc2cc(F)ccc2F)CC(C(F)(F)F)C1 (stereo not drawn) — what was its Activity? Non-Toxic

Moving on to the next compound: O=C1C=C(Nc2ccc(Br)cc2C(=O)O)CC(C(F)(F)F)C1 (stereo not drawn) Non-Toxic

Try this compound next: O=C1C=C(NCc2ccc(Br)cc2)CC(C(F)(F)F)C1 (stereo not drawn) Non-Toxic
